target_under_test: T1, SHANK1, Q9Y566
T1 sequence (Q9Y566 658-767, limits assumed, looked up): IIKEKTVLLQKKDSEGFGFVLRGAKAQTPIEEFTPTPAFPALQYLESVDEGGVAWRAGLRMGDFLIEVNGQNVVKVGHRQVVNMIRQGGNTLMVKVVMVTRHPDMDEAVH
assay_explanation: holdup assay
Design: key: below the threshold = too weak to quantify, mostly under pKd 3.1 to 4
condition_description: plain residues with an end cap or a label only (N-terminal biotin on a linker: ado-ado)
Please go through the items and note down their pKd.
Give the figure only, with no unit attached.

# pKd lookup, item TFSRRPKTRV [CD226, Q15762]
4.06

# pKd lookup, item TKEIPNCTSV [SORCS3, Q9UPU3]
3.92

# pKd lookup, item KKTPVSRSHL [SLC22A3, O75751]
4.54

# pKd lookup, item SRPHTNETSL [MCC, P23508]
4.17
